Where these numbers come from: the RNAGym collection of RNA variant scans (doi:10.1021/acssynbio.7b00057)

B1: Pistol ribozyme (parent)
chain: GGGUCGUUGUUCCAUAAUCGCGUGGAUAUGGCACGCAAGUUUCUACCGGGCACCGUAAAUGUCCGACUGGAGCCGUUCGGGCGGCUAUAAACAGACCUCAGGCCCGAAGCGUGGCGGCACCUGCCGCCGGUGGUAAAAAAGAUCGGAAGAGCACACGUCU

# Variants of: B1
# assay-protocol: aptazyme ON/OFF ratio, guanine; higher = stronger switching; co-transcriptional cleavage with and without guanine
Exercise: state measured aptazyme ON/OFF ratio for each of the variants provided.
Give bare numbers.

Below: 5 variants and their reported aptazyme ON/OFF ratio.
mutant-name | aptazyme ON/OFF ratio
U7G U8C G9A U11A | 2.48
U7G U8G G9C U10G U11A C12U C13U | 1.1
U7G U8A G9A U10A U11A C13G | 1.06
U7A U8C U10C U11A C13U | 1.17
U7C U8G U11A C12U C13U | 1.12

Record aptazyme ON/OFF ratio for all entries; do not skip any.
1. U7G U8C U11A C12A C13A
2. U7G U8C U10C U11C C12A C13A
3. U7C U8G G9U U10A U11G C13U
4. U8G G9U U10A U11A C13A
5. U7G U10G U11G C12A C13A
6. U7C U8A G9U U10C U11G C13A
7. U7A U8C U10G C12U C13G
8. U7A U8A U10G U11G C13U

Result:
1. 1.23
2. 1.27
3. 1.28
4. 1.19
5. 1.08
6. 1.18
7. 1.14
8. 1.5

Record aptazyme ON/OFF ratio for all entries; do not skip any.
1. U7C U10G U11A C13G
2. U7C U8G U10A U11G C12U C13A
3. U7G U8G G9A U10A U11A C12A C13G
4. U7A U8A G9U U10C C12U C13U

Result:
1: 1.18; 2: 1.07; 3: 1.07; 4: 1.43

Record aptazyme ON/OFF ratio for all entries; do not skip any.
1. U7A U8C G9C U10G U11G
2. U7A U8C G9A U11C C13U
3. U7C U8G G9C U10A U11G C12U C13A
4. U7C G9C U10G U11A C13G

Result:
1. 1.06
2. 1.1
3. 1.16
4. 1.05
